- experimentalSystem: B1 bradykinin receptor (Homo sapiens, UniProt P46663)
- Sequence (P46663 whole entry): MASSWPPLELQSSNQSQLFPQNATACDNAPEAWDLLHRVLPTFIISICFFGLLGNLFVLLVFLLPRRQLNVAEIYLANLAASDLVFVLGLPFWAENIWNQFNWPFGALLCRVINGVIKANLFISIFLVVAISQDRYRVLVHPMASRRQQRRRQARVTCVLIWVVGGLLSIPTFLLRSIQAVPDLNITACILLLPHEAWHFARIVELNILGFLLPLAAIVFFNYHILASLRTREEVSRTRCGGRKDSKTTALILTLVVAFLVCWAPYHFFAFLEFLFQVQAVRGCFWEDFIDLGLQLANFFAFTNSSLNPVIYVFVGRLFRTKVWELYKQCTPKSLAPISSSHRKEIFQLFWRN
- protocol: […] human bradykinin B1 receptor by FLIPR assay
quantityName: IC50 (nM)

Previously resolved entries follow.
>>> numericresult("COC(=O)c1c(Cl)cc(Cl)cc1-c1cnc([C@@H](C)NC(=O)[C@@](C)(O)C(F)(F)F)c(F)c1")
3.93
>>> numericresult("Cc1noc(-c2c(Cl)cc(Cl)cc2-c2cnc([C@@H](C)NC(=O)[C@@](C)(O)C(F)(F)F)c(F)c2)n1")
6.65
>>> numericresult("C[C@@H](NC(=O)[C@@](C)(O)C(F)(F)F)c1ncc(-c2cc(Cl)cc(F)c2-c2nnn(C)n2)cc1F")
4.9

(P) Cc1noc(-c2c(F)cc(Cl)cc2-c2cnc([C@@H](C)NC(=O)[C@@](C)(O)C(F)(F)F)c(F)c2)n1
(Q) COC(=O)c1c(F)cccc1-c1ccc(CNC(=O)[C@@](C)(O)C(F)(F)F)c(F)c1
input: For the pair P and Q , which entry has the numerically smaller recorded IC50? State your choice using its label.
output: P
